Cited source for all entries: ChEMBL document CHEMBL1201862

# Cytochrome P450 1A2 (Homo sapiens, UniProt P05177): AC50 values follow;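 also: PubChem cytochrome P450 panel assay, CYP1A2 panel member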
# Sequence (P05177 whole entry): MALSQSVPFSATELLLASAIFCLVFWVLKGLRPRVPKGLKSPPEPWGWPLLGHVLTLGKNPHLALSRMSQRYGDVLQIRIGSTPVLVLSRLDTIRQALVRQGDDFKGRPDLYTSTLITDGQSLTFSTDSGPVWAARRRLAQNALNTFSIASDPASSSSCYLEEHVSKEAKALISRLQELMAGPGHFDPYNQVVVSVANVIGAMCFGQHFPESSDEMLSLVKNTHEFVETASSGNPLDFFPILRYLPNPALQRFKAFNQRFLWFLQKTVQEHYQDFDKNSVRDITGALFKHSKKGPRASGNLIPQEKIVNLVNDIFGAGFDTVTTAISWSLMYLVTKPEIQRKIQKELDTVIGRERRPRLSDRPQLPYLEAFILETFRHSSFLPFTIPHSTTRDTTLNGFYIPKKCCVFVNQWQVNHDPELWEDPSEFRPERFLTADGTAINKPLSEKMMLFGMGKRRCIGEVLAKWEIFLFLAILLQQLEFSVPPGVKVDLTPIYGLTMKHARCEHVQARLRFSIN

Examples with answers:
O=C(c1cc(-c2ccco2)on1)N1CCOCC1 = 0.0251 µM (inconclusive)
C[C@@H](C(=O)O)c1ccc(-c2ccccc2)c(F)c1 = 31.6 µM (inconclusive)
COCCn1c(=O)c(-c2cccc(C#N)c2)nc2cnc(Oc3ccc(OC)cc3)nc21 = 12.6 µM (inconclusive)
COc1ccc(Nc2cc(C(=O)NCCCN3CCN(C)CC3)c3ccccc3n2)cc1 = 10 µM (inconclusive)
COC(=O)c1ccc(NC(=O)c2ccccc2)o1 = 2.82 µM (inconclusive)
Cc1cc(C)cc(-n2nnc(C(=O)NCc3ccccc3Cl)c2N)c1 = 1.58 µM (inconclusive)
CCc1ccc(N2CC(C(=O)NC3=NCCS3)CC2=O)cc1 (stereo unspecified) = 20 µM (inconclusive)
Cn1c(=O)cc(OCCCC(=O)N2CCN(c3ccccc3)CC2)c2ccccc21 = 15.8 µM (inconclusive)
C=CCN1C(=O)NC(=O)/C(=C/c2cccn2C)C1=O = 15.8 µM (inconclusive)
CC1Cc2ccccc2N1C(=O)CSCC(=O)O (stereo unspecified) = 20 µM (inconclusive)

Kindly review the next molecule as well.
[Q] Please list AC50 recorded for the molecule `N=C(N)NCCC[C@H](N)C(=O)O`
[A] 31.6 µM (inconclusive)

----------
Entries with reported AC50 on Cytochrome P450 2C9 (Homo sapiens, UniProt P11712)
Sequence (P11712 whole entry): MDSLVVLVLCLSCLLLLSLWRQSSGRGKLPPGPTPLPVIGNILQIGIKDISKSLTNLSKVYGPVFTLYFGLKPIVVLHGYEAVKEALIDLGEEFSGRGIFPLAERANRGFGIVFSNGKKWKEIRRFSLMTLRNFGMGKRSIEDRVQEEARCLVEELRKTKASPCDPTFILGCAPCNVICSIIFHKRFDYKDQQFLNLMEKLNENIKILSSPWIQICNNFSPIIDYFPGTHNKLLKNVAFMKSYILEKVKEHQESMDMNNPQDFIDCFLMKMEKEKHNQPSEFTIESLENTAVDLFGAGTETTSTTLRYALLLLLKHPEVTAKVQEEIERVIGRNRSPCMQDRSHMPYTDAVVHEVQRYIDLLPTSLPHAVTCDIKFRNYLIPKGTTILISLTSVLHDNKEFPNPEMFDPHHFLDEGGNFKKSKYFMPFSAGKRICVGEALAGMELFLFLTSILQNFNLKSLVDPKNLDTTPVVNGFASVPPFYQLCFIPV

Worked set:
CC(C)(C)n1nc(-c2ccc(Cl)cc2)c2c(N)ncnc21 = 7.08 µM (inconclusive)
CC(C)(C)CC(C)(C)c1cc(O)c(O)c(CN2CCCCC2)c1 = 7.94 µM (inconclusive)
CCC[C@@H]1C[C@@]1(CCC)C(NC(=O)OCc1ccccc1)c1ccc(-c2ccccc2)cc1 (stereo not given in full) = 3.98 µM (inconclusive)
COC(=O)[C@@]1(Cc2ccc(OC)cc2)[C@H]2c3cc(C(=O)N(C)C)n(CCSCCO)c3C[C@H]2CN1C(=O)c1ccccc1 = 12.6 µM (inconclusive)

Could you now look at the following molecule, please?
[Q] Write AC50 of `CCn1c(=N)c(S(=O)(=O)c2ccc(F)cc2)cc2c(=O)n3ccccc3nc21` ; system used: Cytochrome P450 2C9 (Homo sapiens, UniProt P11712)
[A] 22.4 µM (inconclusive)

----------
- assayed_target: Polyadenylate-binding protein 1 (Homo sapiens)
- Sequence (P11940 whole entry): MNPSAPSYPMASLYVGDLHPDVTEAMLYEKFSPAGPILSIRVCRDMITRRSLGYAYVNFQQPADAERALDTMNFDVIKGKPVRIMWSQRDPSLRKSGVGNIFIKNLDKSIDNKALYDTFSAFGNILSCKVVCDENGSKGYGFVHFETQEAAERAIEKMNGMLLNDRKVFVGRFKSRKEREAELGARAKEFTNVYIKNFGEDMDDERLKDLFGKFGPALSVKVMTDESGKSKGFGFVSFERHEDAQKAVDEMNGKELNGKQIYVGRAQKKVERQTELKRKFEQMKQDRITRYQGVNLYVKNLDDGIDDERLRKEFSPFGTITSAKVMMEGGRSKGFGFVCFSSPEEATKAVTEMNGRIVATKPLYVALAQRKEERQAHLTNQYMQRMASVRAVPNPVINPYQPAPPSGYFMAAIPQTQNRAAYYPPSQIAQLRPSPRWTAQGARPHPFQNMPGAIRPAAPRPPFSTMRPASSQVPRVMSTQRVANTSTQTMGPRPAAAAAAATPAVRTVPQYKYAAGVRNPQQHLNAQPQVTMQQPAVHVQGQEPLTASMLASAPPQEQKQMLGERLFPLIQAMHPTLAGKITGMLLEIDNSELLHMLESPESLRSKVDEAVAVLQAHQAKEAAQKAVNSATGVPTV
- assay_procedure: PABP1 MLLE–PAM2 binding inhibitor potency, dose response, biochemical, fluorescence polarization, FITC-PAM2 peptide (AID 602259)
- Assay type: functional
- condition_notes: read-out: IC50_Mean
The source made the active and inactive calls.
Response enum: label 1 (active), label 0 (inactive)

CCOC(=O)c1c(/N=C/c2cccc([N+](=O)[O-])c2O)sc(C)c1C = label 0

[Q] Which outcome was assigned to `COc1ccc(NS(=O)(=O)c2ccc(Cl)s2)cn1` in this test?
[A] label 1

[Q] What is the recorded call for this molecule in the test? `COc1c(S(=O)(=O)NCCCN2CCOCC2)ccc(Cl)c1Cl`
[A] label 0

[Q] Per the assay record, what outcome was assigned to `O=C(Sc1cccc2cccnc12)c1ccccc1Br` ?
[A] label 0

[Q] // outcome(item) with item = `CCc1ccc(C(=O)NC(=S)Nc2ccc(N3CCOCC3)cc2)cc1`
[A] label 0

[Q] Fill in: this test's call for `COc1ccc(C(N)=S)c(OC)c1` is ___
[A] label 0

[Q] // outcome(item) with item = `O=S(=O)(O)c1cc(O)c2cc(Nc3ccccc3)ccc2c1`
[A] label 0
